Just for reference, patent US11396503B2 is where these values come from.

TARGET: hRORγt (Homo sapiens, UniProt P51449)
Construct: expressed in transfected cells; host or cells: CHO-S (Chinese hamster ovary cells, Invitrogen R80007), transiently transfected with pM-hRORγt and pG5-luc
Sequence (P51449 1-497 isoform P51449-2): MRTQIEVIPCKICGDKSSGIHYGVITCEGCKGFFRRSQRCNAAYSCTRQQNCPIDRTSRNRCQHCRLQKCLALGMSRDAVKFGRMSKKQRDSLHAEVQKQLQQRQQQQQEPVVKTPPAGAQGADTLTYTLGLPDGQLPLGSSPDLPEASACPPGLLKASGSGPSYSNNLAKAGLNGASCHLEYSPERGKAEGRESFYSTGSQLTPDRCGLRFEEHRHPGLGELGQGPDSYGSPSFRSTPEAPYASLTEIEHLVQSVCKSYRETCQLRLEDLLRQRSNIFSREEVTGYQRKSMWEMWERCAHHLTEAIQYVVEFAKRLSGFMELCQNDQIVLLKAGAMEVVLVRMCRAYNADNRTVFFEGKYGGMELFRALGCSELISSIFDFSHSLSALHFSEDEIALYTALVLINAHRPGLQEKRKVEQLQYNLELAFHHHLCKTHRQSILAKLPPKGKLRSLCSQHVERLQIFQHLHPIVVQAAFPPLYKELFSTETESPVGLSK
PROTOCOL_DETAILS: Luciferase assay (reporter gene, recombinant plasmid hRORγt)
Format: cell-based
PARTICULARS: CHO-S cells transfected with pM-hRORγt and pG5-luc; overnight culture with compound; ONE-Glo luciferase readout; read-out: RORgt EC50
Record form. Attribute: EC50. Fill in for each entry.
State just the number; it will be interpreted in pM.

Ask: State, in one line, measured EC50 of CCc1ccc2c(c1)CCC(C(C)C)N2S(=O)(=O)c1ccc(OCC2CCOCC2)c(CO)c1 (stereo not shown)
Reply: 12400

Ask: State, in one line, measured EC50 of CCC1CCc2cc(C(C)(C)C)ccc2N1S(=O)(=O)c1ccc(OCC2CCOCC2)c(CO)c1 (stereo not shown)
Reply: 70200

Ask: State, in one line, measured EC50 of CCc1ccc2c(c1F)CCC(CC)N2S(=O)(=O)c1ccc(OCC2CCOCC2)c(CO)c1 (stereo not shown)
Reply: 13600

Ask: State, in one line, measured EC50 of CCCc1ccc2c(c1)CCC(C)N2S(=O)(=O)c1ccc(OCC2CCOCC2)c(CO)c1 (stereo not shown)
Reply: 17900

Ask: State, in one line, measured EC50 of CCc1ccc2c(c1)CCC(C(F)(F)F)N2S(=O)(=O)c1ccc(OCC2CCOCC2)c(CO)c1 (stereo not shown)
Reply: 23000

Ask: State, in one line, measured EC50 of `CCc1ccc2c(c1)C[C@@H](O)[C@H](C)N2S(=O)(=O)c1ccc(OCC2CCOCC2)c(CO)c1`
Reply: 803000

Ask: State, in one line, measured EC50 of CCc1ccc2c(c1)CC(CC)CN2S(=O)(=O)c1ccc(OCC2CCOCC2)c(CO)c1 (stereo not shown)
Reply: 31600

Ask: State, in one line, measured EC50 of C=Cc1ccc2c(c1)CCC(CC)N2S(=O)(=O)c1ccc(OCC2CCOCC2)c(CO)c1 (stereo not shown)
Reply: 35500

Ask: State, in one line, measured EC50 of `CCc1cc(F)c2c(c1)CC[C@H](C)N2S(=O)(=O)c1ccc(OCC2CCOCC2)c(CO)c1`
Reply: 151000

Ask: State, in one line, measured EC50 of Cc1cc(C)c2c(c1)CCC(C1CC1)N2S(=O)(=O)c1ccc(OCC2CCOCC2)c(CO)c1 (stereo not shown)
Reply: 18000

Ask: State, in one line, measured EC50 of CCc1ccc2c(c1)CCC(CC)N2S(=O)(=O)c1ccc(C(CO)N2CCOCC2)c(CO)c1 (stereo not shown)
Reply: 3.12e+06

Ask: State, in one line, measured EC50 of CCC1CCc2cc(C(C)C)ccc2N1S(=O)(=O)c1ccc(OCC2CCOCC2)c(CO)c1 (stereo not shown)
Reply: 3500

Ask: State, in one line, measured EC50 of C=C(C)c1ccc2c(c1)CCC(CC)N2S(=O)(=O)c1ccc(OCC2CCOCC2)c(CO)c1 (stereo not shown)
Reply: 12000

Ask: State, in one line, measured EC50 of `CCc1ccc2c(c1)N(S(=O)(=O)c1ccc(OCC3CCOCC3)c(CO)c1)[C@@H](C)CC2`
Reply: 223000

Ask: State, in one line, measured EC50 of CC1CCc2cc(C(F)(F)F)ccc2N1S(=O)(=O)c1ccc(OCC2CCOCC2)c(CO)c1 (stereo not shown)
Reply: 15000

Ask: State, in one line, measured EC50 of `CC[C@H]1CCc2cc(C(C)C)ccc2N1S(=O)(=O)c1ccc(OCC2CCOCC2)c(CO)c1`
Reply: 6800

Ask: State, in one line, measured EC50 of CCc1ccc2c(c1)CCC(CC)N2S(=O)(=O)c1ccc(OCC2CCS(=O)(=O)CC2)c(CO)c1 (stereo not shown)
Reply: 146000

Ask: State, in one line, measured EC50 of `CCc1ccc2c(c1)CCCN2S(=O)(=O)c1ccc(OCC2CCOCC2)c(CO)c1`
Reply: 858000

Ask: State, in one line, measured EC50 of CCC1CCc2cc(C(C)(F)F)ccc2N1S(=O)(=O)c1ccc(OCC2CCOCC2)c(CO)c1 (stereo not shown)
Reply: 15600

Ask: State, in one line, measured EC50 of CCc1ccc2c(c1)C(C)CN2S(=O)(=O)c1ccc(OCC2CCOCC2)c(CO)c1 (stereo not shown)
Reply: 1.4e+06

Ask: State, in one line, measured EC50 of CC1CCc2cc(C3CC3)ccc2N1S(=O)(=O)c1ccc(OCC2CCOCC2)c(CO)c1 (stereo not shown)
Reply: 20700

Ask: State, in one line, measured EC50 of CCC1CCc2cc(C(F)(F)F)ccc2N1S(=O)(=O)c1ccc(OCC2CCOCC2)c(CO)c1 (stereo not shown)
Reply: 21100
